Molecular target: Nuclear factor erythroid 2-related factor 2 (Homo sapiens, UniProt Q16236)
Sequence (Q16236 whole entry): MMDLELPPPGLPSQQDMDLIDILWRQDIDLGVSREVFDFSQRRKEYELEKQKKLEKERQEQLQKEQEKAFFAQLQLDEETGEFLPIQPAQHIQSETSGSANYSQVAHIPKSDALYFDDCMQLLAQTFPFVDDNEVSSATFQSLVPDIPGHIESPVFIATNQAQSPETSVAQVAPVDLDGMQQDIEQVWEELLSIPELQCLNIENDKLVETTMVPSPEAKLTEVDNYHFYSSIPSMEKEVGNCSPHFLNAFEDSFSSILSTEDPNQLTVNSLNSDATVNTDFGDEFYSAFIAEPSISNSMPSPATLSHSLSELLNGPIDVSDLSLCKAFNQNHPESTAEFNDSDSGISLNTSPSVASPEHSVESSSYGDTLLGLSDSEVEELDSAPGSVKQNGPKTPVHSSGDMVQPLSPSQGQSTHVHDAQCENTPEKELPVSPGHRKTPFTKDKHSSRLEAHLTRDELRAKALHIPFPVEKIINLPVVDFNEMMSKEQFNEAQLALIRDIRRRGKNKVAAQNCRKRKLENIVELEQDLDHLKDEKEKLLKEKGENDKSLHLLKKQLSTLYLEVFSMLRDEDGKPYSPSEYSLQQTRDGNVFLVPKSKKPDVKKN
Experiment: Inhibition of NRF2 in human MDA-MB-231 cells harboring ARE-GFP-Luc assessed as reduction in ARE-luciferase activity after 16 hrs by firefly luciferase reporter gene assay
measured_quantity: pIC50
pIC50 is a log-scale quantity: -log10 of the concentration expressed in molar.

Consider the compound shown here: `COC(=O)[C@@]12OC[C@]34[C@H]([C@@H](O)[C@@H]1O)[C@@]1(C)CC(=O)C(O)=C(C)[C@@H]1C[C@H]3OC(=O)[C@H](OC(=O)C=C(C)C)[C@@H]24` What is its recorded pIC50?
7.54
